Target: T1, 10xHis-KLHDC2 SBD (residues 15-361) (human, UniProt Q9Y2U9 15-361)
T1 sequence (looked up): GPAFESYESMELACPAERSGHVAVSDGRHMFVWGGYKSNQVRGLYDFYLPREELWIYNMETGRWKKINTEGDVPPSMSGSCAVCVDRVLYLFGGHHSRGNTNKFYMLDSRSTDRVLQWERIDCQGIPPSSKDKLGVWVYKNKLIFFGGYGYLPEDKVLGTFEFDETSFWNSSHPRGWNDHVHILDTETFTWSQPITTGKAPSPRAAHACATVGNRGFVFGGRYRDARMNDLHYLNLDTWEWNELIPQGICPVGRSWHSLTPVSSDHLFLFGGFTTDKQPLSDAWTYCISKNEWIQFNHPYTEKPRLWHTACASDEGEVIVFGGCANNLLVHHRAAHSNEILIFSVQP
Assay: SPR
readout-kind: Kd (nM)
Return type: number; implicit unit nM.

## Task Query: Kd; subject: USP1 fragment (residues 592-671) (domain or fragment, UniProt O94782 592-671, looked up) GHYTASVKVTDLNSLELDKGNFVVDQMCEIGKPEPLNEEEARGVVENYNDEEVSIRVGGNTQPSKVLNKKNVEAIGLLGG
## Result 264
